Molecular target: T1, human TIM-3 extracellular domain protein with hFc tag (hTIM-3-hFc) (human, UniProt Q8TDQ0 22-200)
T1 construct: not shown: human IgG Fc fragment (hFc) of the pCpC vector
T1 sequence: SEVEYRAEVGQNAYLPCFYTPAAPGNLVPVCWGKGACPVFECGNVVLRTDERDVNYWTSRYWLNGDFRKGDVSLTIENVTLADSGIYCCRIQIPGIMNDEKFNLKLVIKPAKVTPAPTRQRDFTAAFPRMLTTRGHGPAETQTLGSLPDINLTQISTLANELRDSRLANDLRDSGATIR
Test: ELISA, coated human TIM-3 ECD protein, 0.0067 nM antibody
Observation type: OD450
# answer = number (no unit)

Using the record for 134H3G6 fully human TIM-3 antibody (human IgG4, kappa) (antibody, V domains shown) VH: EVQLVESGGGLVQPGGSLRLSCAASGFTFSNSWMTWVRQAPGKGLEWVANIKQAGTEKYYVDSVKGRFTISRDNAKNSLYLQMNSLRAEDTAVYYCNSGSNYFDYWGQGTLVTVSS VL: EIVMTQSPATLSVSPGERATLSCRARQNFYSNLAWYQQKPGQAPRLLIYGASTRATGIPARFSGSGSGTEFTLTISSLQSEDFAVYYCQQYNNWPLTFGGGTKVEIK , state its measured OD450.
0.27

Using the record for 34B6D8 fully human TIM-3 antibody (human IgG4, kappa) (antibody, V domains shown) VH: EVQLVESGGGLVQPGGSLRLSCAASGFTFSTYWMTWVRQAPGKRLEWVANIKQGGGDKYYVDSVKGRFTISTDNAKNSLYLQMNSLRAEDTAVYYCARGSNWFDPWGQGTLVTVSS VL: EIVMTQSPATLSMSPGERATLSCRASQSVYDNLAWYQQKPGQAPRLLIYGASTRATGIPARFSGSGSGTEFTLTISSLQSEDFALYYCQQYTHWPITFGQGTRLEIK , state its measured OD450.
0.29

Using the record for 18D2H2 fully human TIM-3 antibody (human IgG4, kappa) (antibody, V domains shown) VH: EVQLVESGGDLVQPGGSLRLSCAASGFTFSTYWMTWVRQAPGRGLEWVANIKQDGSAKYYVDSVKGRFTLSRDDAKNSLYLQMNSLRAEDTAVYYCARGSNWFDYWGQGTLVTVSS VL: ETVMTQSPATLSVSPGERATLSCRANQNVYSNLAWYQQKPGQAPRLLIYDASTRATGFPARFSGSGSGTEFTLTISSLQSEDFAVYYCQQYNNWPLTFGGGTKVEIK , state its measured OD450.
0.32

Using the record for 7A4F10 fully human TIM-3 antibody (human IgG4, kappa) (antibody, V domains shown) VH: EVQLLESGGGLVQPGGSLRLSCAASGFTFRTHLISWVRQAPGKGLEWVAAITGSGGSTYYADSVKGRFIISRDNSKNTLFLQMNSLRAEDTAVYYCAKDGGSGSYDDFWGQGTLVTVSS VL: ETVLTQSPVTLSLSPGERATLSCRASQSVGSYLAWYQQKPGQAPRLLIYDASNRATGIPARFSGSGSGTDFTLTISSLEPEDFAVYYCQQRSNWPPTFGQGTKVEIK , state its measured OD450.
0.32

Using the record for 57F4E5 fully human TIM-3 antibody (human IgG4, kappa) (antibody, V domains shown) VH: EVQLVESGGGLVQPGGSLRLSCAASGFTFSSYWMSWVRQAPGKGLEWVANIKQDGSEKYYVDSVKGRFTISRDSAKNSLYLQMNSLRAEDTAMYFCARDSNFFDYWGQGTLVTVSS VL: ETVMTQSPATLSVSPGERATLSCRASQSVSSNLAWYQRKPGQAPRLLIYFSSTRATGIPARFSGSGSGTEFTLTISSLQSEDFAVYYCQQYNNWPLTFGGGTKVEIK , state its measured OD450.
0.23

Using the record for 39E5H1 fully human TIM-3 antibody (human IgG4, kappa) (antibody, V domains shown) VH: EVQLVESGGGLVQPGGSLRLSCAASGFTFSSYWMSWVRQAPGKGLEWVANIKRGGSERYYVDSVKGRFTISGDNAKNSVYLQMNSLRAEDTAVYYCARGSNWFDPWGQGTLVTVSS VL: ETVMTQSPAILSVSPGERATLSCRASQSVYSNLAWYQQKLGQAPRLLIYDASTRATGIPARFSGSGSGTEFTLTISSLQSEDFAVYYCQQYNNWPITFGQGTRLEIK , state its measured OD450.
0.25
